# Tested on: SNB-19
# PROTOCOL TEXT: NCI tumour cell line growth inhibition, 48 h
Activity calls are given as the source filed them. Cut-off read from the data, not from the text of the source: active = GI50 up to about 1.1 µM and inactive = higher.
Select the matching outcome among y (active), n (inactive)

>>> answer_label("Cn1c(=O)c2nc(-c3ccc(Cl)cc3)oc2n(C)c1=O")
"n"
>>> answer_label("O=C(CNc1cccc(Cl)c1)Nn1c(-c2ccccc2)nc2ccccc2c1=O")
"n"

Task: Name the outcome recorded for C=C1CCc2occ(C)c2C2C1C1=C(CC(C)C1=O)C1OC12C (stereo not drawn) in the assay.
Result: n

Task: Now give it for CC(=O)N(C(C)=O)n1c(Cc2ccc(C)cc2)nn(C(C)=O)c1=O too.
Result: n

Task: Now give it for C=C(COC(=O)C(C)C)[C@H]1Oc2ccc(C(C)=O)cc2[C@@H]1OC(=O)C(C)C too.
Result: n

Task: Now give it for CCOc1ccc(NC(=O)/C=C/c2ccco2)cc1 too.
Result: n

---

# System: HL-60
# PROTOCOL TEXT: NCI tumour cell line growth inhibition, 48 h
Calls of active or inactive are those of the source. Cut-off read from the data, not from the text of the source: active = GI50 up to about 1.1 µM and inactive = higher.
VALUE KIND: GI50

Solved cases below.
>>> endpoint_result("COc1ccc(C2N(c3ccc(F)cc3)C(=O)N3C(c4ccc(OC)cc4)N(c4ccc(F)cc4)C(=O)N23)cc1 (centres undefined)")
"> 100 µM (inactive)"
>>> endpoint_result("CCC(COC(=O)CC[C@@H](NC(=O)C(C)NC(=O)C(C)OC1C(O)C(CO)OC(OCc2ccccc2)C1NC(C)=O)C(N)=O)NC1c2ccccc2Nc2cccc([N+](=O)[O-])c21 (some centres undefined)")
"> 100 µM (inactive)"
>>> endpoint_result("COc1ccc(O)c(/C=N/CCC/N=C/c2cc(OC)ccc2O)c1")
"1.21 µM (inactive)"

Please examine the following record next.
Task: # query: GI50 of entry Cc1cc(C)n(CCNCCn2nc(C)cc2C)n1
Result: > 100 µM (inactive)

---

# Tested on: MDA-MB-435
# PROTOCOL TEXT: NCI tumour cell line growth inhibition, 48 h
Active and inactive are the calls of the source. No stated cut-off is given here; in the data, active = GI50 up to about 1.1 µM and inactive = higher.
Select the matching outcome among YES (active), NO (inactive)

Task: Name the outcome recorded for CCOC(=O)NNC(=O)NCc1cccc(CNC(=O)NNC(=O)OCC)c1 in the assay.
Result: NO

Task: Now give it for Cc1ccc(/N=N/c2c(O)c(C(=O)O)cc3ccccc23)c(S(=O)(=O)O)c1 too.
Result: NO

Task: Now give it for CCN(CC)CCC(=O)NC1c2ccc(Cl)cc2Oc2c(C)cccc21 (stereo not given) too.
Result: NO

Task: Now give it for COC(=O)Cn1c(=O)oc2nc(-c3ccccc3)cc(C(F)(F)F)c21 too.
Result: NO

Task: Now give it for Cc1ccc(S(=O)(=O)N(CCNC(=O)c2cccc(O)c2O)c2cc3c4c(c2)Oc2cccc5c2C4(C)c2c(cccc2O3)O5)cc1 too.
Result: NO

Task: Now give it for Cc1cc(S(=O)(=O)Nc2nnc3c(Cl)cc(C(F)(F)F)cn23)c(S)cc1Cl too.
Result: NO

Task: Now give it for CC[C@](C)(O)C(=O)O[C@H]1C(=O)O[C@@H]2C[C@H]3C(C)=CC(=O)[C@@H](O)[C@]3(C)[C@H]3[C@@]4(O)OC[C@]32[C@@H]1[C@@H](C)[C@H]4O too.
Result: NO

Task: Now give it for Fc1ccc(Nc2nc(Cl)c3nc[nH]c3n2)cc1Cl too.
Result: NO

Task: Now give it for Cc1ccc(C[N+](C)(C)N)cc1C too.
Result: NO

Task: Now give it for O[C@]12C=C(c3nccc4c3[nH]c3ccccc34)[C@@H]3CCN(CCCC/C=C\CC1)C[C@@]31CC3/C=C\CCCCN3[C@H]12 (stereo not given in full) too.
Result: YES

Task: Now give it for C=C(COC(=O)C(C)C)[C@H]1Oc2ccc(C(C)=O)cc2[C@@H]1OC(=O)C(C)C too.
Result: NO

Task: Now give it for OC(c1cc(C(O)(C(F)(F)F)C(F)(F)F)ncn1)(C(F)(F)F)C(F)(F)F too.
Result: NO

Task: Now give it for CC(=O)OC(C)c1cc2c(s1)C(=O)c1sccc1C2=O (stereo not given) too.
Result: YES

Task: Now give it for COc1cc(OC)c(/C=N/N=C(\N)NO)c(OC)c1 too.
Result: NO

Task: Now give it for COC(=O)c1ccc(C)cc1/C=C1\Cc2ccc(C)cc2C1=O too.
Result: NO

Task: Now give it for C/C(=C1/N=C(c2ccccc2)OC1=O)c1ccccc1 too.
Result: NO

Task: Now give it for CN1CCN(C(=S)N(C(=O)c2cccs2)c2ccccc2)CC1 too.
Result: NO

Task: Now give it for N/C(=N\Nc1cccc(Cl)c1)c1cccnc1 too.
Result: NO

Task: Now give it for COc1cc(CC(C)NC(C)=O)cc(OC)c1 (stereo not given) too.
Result: NO

Task: Now give it for NC12c3c4cccc3Oc3cccc(c31)Oc1cccc(c12)O4 too.
Result: NO
